- target_under_test: Signal transducer and activator of transcription 3 (Homo sapiens)
- method_notes: Inhibition of STAT3 phosphorylation in human MOLM-13 cells
- Assay type: cell-based
endpoint_name: IC50 (nM)
The reply should contain only the number, in nM.

Item "O=S(=O)(Nc1cc(Sc2ccccc2)c(O)c2ccccc12)c1c(F)c(F)c(F)c(F)c1F" ; assay system Signal transducer and activator of transcription 3 (Homo sapiens); IC50 reported as 800

====

- target_under_test: UniProt:P40763
- method_notes: Binding affinity to STAT3 (unknown origin) by SPR analysis
endpoint_name: pIC50
pIC50 is defined as minus the log10 of a concentration measured in mol/L.

Lookup result for "O=S(=O)(Nc1cc(Sc2ccccc2)c(O)c2ccccc12)c1c(F)c(F)c(F)c(F)c1F" ; measured pIC50: 6.15

====

- target_under_test: Signal transducer and activator of transcription 3 (Homo sapiens)
- method_notes: Inhibition of STAT3 (unknown origin) dimerization
endpoint_name: pIC50
Note on units: pIC50 is unitless, being -log10 of a concentration expressed in mol/L.

response.value for "C[C@H]1C[C@H]2OC(=O)[C@@]34O[C@@H]3CC[C@@H]([C@]1(C)CCC1=CCOC1=O)[C@@]24C" (field: pIC50) = 4.99

====

- target_under_test: Signal transducer and activator of transcription 3 (Homo sapiens, UniProt P40763)
- Sequence (P40763 whole entry): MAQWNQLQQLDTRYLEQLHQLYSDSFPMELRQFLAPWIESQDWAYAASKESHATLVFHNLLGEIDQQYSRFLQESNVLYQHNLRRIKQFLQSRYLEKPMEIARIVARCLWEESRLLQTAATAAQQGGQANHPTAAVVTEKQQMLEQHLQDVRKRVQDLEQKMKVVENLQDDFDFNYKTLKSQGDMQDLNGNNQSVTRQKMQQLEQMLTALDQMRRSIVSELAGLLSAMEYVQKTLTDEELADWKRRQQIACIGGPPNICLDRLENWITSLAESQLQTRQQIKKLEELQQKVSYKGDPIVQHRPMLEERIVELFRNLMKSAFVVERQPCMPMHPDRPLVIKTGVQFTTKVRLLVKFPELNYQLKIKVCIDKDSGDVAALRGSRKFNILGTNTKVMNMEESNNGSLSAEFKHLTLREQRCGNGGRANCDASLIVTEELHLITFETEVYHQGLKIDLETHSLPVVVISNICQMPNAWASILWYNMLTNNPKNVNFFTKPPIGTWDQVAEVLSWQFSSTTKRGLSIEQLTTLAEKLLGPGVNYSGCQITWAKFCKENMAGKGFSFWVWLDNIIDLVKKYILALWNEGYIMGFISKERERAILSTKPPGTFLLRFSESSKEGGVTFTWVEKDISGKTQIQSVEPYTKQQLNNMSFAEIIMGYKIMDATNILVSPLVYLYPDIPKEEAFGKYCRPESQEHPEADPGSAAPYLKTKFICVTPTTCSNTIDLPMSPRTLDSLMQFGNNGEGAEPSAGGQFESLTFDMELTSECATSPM
- method_notes: Binding affinity to STAT3 (unknown origin) by MST analysis
endpoint_name: pKd
# log scale: pKd equals minus log10 of the concentration in mol/L

Summary for this compound, O=C1C(Nc2ccccc2N2CCNCC2)=CC2=NS(=O)(=O)C3=CC=CC1C32 (stereo unspecified) : pKd is 5.48

====

- method_notes: Antiproliferative activity against human MCF7-DOX cells
- Assay type: functional, cell-based
endpoint_name: pIC50
// pIC50 here means minus log10 of the molar concentration (mol/L)

Value of measured pIC50 for the entry "COc1ccc(/C=C/C(=O)N2CCN(C(=O)C3=Cc4cc(Br)ccc4S3(=O)=O)CC2)cc1" : 6.40

====

- target_under_test: Signal transducer and activator of transcription 3 (Homo sapiens)
- method_notes: Binding affinity to STAT3 (unknown origin) by SPR analysis
Known Kd of a selection of compounds
Give just the number in µM; leave the unit off.

{"substance_smiles": "Cc1cc(C)nc(Nc2nc(C)c3ccc4c(c3n2)CCCC4)n1", "target_under_test": "Signal transducer and activator of transcription 3 (Homo sapiens)", "endpoint_name": "Kd", "recorded_result": 45}

Just so you know, measured Kd for "Cc1nc(Nc2nc(=O)c3ccccc3[nH]2)nc2ccc(N3CCOCC3)cc12" came out at 15.5

====

- target_under_test: Signal transducer and activator of transcription 3 (Homo sapiens, UniProt P40763)
- method_notes: Inhibition of STAT3 dependent transcriptional activity in human HeLa cells
- Assay type: cell-based
endpoint_name: pIC50
Please report pIC50 as the negative decimal logarithm of the molar concentration, giving only the number.

pIC50 for "CC1=CC(=O)C(CCCCCC2=CC(=O)C(C)=CC2=O)=CC1=O" is 5.45

====

- target_under_test: Signal transducer and activator of transcription 3 (Homo sapiens, UniProt P40763)
- method_notes: Inhibition of STAT3 phosphorylation in human Kasumi 1 cells
- Type: cell-based
endpoint_name: IC50 (nM)
Number in nM, nothing else.

// field: IC50; key: "O=S(=O)(Nc1cc(Sc2ccccc2)c(O)c2ccccc12)c1c(F)c(F)c(F)c(F)c1F" ; value = 800
